The measurements presented in this section are drawn from patent US20250215012A1.

# Study target: IKZF2 (Homo sapiens (Human), UniProt Q96SW2+Q9UKS7)
# Sequence (Q9UKS7 whole entry): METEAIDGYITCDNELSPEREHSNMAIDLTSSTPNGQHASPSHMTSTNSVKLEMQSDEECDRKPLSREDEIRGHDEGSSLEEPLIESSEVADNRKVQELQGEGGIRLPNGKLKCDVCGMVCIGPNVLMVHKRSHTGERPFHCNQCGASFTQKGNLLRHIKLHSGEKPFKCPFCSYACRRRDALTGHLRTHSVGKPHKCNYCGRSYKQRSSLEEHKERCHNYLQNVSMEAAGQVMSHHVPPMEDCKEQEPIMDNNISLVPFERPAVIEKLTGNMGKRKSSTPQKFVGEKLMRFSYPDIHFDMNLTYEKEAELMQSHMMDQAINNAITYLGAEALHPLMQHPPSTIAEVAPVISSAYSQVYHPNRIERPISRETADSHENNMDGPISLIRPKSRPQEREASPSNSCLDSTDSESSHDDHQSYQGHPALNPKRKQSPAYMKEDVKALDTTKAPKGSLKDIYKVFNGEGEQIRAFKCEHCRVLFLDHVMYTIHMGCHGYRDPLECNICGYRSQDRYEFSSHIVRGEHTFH
# Sequence (Q96SW2 whole entry): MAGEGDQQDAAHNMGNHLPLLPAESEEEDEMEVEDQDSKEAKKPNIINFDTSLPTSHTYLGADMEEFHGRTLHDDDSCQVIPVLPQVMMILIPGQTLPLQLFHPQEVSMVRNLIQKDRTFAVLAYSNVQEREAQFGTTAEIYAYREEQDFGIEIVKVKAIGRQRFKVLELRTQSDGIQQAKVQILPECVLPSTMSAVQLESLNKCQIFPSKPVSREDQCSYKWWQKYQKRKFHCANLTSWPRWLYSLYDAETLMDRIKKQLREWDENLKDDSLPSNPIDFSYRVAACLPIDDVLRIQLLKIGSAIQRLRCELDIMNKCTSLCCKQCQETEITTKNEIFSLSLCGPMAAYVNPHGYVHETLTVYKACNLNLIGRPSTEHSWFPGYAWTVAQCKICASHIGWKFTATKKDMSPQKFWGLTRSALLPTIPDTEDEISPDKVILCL
# Sequence (Q16531 whole entry partner): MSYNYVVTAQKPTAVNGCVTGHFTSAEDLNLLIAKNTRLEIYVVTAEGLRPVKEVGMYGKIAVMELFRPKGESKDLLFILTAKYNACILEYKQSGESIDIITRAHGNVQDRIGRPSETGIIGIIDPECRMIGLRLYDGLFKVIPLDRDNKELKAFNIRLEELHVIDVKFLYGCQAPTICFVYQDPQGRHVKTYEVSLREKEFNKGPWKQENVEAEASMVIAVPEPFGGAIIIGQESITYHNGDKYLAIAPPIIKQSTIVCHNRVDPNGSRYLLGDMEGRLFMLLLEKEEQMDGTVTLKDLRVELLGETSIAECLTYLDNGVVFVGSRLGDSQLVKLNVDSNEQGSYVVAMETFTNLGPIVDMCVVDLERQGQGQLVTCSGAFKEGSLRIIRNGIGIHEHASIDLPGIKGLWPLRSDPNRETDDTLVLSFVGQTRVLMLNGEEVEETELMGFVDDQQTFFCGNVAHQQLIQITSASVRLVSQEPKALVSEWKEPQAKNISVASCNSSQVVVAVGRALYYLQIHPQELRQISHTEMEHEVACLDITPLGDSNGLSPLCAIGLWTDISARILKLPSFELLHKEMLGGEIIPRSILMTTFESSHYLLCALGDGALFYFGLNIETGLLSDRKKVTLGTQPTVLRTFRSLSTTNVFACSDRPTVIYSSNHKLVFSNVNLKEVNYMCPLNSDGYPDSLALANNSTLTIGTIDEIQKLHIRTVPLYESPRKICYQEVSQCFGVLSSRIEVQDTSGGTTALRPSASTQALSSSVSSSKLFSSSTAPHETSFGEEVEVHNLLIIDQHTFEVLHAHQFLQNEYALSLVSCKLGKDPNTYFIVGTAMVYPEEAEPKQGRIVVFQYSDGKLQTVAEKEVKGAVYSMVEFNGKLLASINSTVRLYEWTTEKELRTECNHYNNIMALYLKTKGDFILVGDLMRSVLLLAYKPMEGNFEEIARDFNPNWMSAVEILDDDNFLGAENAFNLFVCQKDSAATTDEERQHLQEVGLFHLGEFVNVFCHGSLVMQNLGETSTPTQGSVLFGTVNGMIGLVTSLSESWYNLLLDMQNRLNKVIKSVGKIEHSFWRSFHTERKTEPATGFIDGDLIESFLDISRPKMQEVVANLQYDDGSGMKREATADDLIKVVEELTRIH
# Assay overview: IKZF2 HiBit Assay (HEK293T Flp-in-HiBiT cells)
# Assay type: cell-based
# Condition: HEK293T Flp-in-HiBiT cells, 6 hrs; read-out: IKZF2 HiBit degradation DC50
Parameter measured: DC50

These solved cases illustrate the format of a correct answer.
Cn1ncc2c(CN3CCC4(COc5c4ccc4c5CN([C@H]5CCC(=O)NC5=O)C4=O)C(F)(F)C3)cccc21 (stereo partly shown) [Compound B43]
1 to 10 nM
Cn1cc(-c2cccc(CN3CCC4(CC3)COc3c5c(cc(F)c34)C(=O)N([C@H]3CCC(=O)NC3=O)C5)c2)cn1 [Compound B55]
< 1 nM
Cn1cc(-c2cccc(CN3CCC4(COc5c4ccc4c5CN(C5CCC(=O)NC5=O)C4=O)C(F)(F)C3)c2)cn1 (stereo not shown) [Compound B26]
1 to 10 nM

Attention now shifts to the item below.
I'd like to know its DC50. The compound in question is O=C1CCC(N2Cc3c(ccc4c3OCC43CCN(Cc4ccccc4)CC3O)C2=O)C(=O)N1 (stereo not shown) [Compound B22] 10 to 100 nM

====

# Study target: IKZF2 (Homo sapiens (Human), UniProt Q96SW2+Q9UKS7)
# Assay overview: IKZF2 HiBiT Assay (Jurkat-IKZF2-HiBiT cell line)
# Assay type: cell-based
# Condition: Jurkat-IKZF2-HiBiT cells, 24 hours; read-out: HiBit assay degradation analysis Dmax
# Dmax annotations

These solved cases illustrate the format of a correct answer.
O=C1CCC(N2Cc3c(ccc4c3OCC43CCN(CC4C5CC6CC(C5)CC4C6)CC3)C2=O)C(=O)N1 (stereo not shown) [Compound A23]
< 40%
COc1ccc(C(=O)Nc2cccc(CN3CCC4(CC3)COc3c4ccc4c3CN(C3CCC(=O)NC3=O)C4=O)c2)cc1 (stereo not shown) [Compound A177]
> 80%
N#Cc1ccc(-n2cc(CN3CCC4(CC3)COc3c4ccc4c3CN([C@H]3CCC(=O)NC3=O)C4=O)cn2)cc1 [Compound A359]
60 to 80%
CCOc1cccc(CN2CCC3(CC2)COc2c3ccc3c2CN(C2CCC(=O)NC2=O)C3=O)c1 (stereo not shown) [Compound A92]
40 to 60%

I'd like to know its Dmax. The compound in question is O=C1CCC(N2Cc3c(ccc4c3OCC43CCN(Cc4ccc5ncccc5c4)CC3)C2=O)C(=O)N1 (stereo not shown) [Compound A46] 40 to 60%

I'd like to know its Dmax. The compound in question is O=C1CC[C@H](N2Cc3c(ccc4c3OCC43CCN(Cc4cccc(-c5cnn(C6CC6)c5)c4)CC3)C2=O)C(=O)N1 [Compound A268] 60 to 80%

I'd like to know its Dmax. The compound in question is Cc1c(-c2cccc(CN3CCC4(CC3)COc3c4ccc4c3CN([C@H]3CCC(=O)NC3=O)C4=O)c2)cnn1C [Compound A284] 60 to 80%

I'd like to know its Dmax. The compound in question is O=C1CCC(N2Cc3c(ccc4c3OCC43CCN(Cc4cccc5[nH]cc(Cl)c45)CC3)C2=O)C(=O)N1 (stereo not shown) [Compound A141] 60 to 80%

I'd like to know its Dmax. The compound in question is O=C1CCC(N2Cc3c(ccc4c3OCC43CCN(Cc4cccn5ccnc45)CC3)C2=O)C(=O)N1 (stereo not shown) [Compound A77] 40 to 60%

====

# DC50 annotations
# Study target: IKZF1 (Homo sapiens (Human), UniProt Q13422+Q96SW2)
# Sequence (Q13422 whole entry): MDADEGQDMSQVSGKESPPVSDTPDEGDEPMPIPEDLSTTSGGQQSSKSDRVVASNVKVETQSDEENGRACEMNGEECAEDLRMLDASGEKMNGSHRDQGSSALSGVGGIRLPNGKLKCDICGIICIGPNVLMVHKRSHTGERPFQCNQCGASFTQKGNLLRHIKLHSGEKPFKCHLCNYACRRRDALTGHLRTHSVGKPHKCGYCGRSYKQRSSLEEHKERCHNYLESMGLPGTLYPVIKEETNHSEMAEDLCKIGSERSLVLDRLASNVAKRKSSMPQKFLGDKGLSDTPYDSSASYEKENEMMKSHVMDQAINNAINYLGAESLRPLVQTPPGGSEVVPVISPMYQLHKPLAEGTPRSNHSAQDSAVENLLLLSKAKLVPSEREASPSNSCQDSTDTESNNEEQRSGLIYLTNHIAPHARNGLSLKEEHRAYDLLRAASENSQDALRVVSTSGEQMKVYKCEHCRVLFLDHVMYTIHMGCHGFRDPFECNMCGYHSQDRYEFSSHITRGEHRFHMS
# Sequence (Q96SW2 whole entry): as the sequence (Q96SW2 whole entry) above
# Sequence (Q16531 whole entry partner): as the sequence (Q16531 whole entry partner) above
# Assay overview: IKZF1 HiBit Assay (HEK293T Flp-in-HiBiT-IKZF1 stable cell line)
# Assay type: cell-based
# Condition: HEK293T Flp-in-HiBiT-IKZF1 cells, 6 hrs; read-out: IKZF1 HiBit degradation DC50

These solved cases illustrate the format of a correct answer.
O=C1CC[C@H](N2Cc3c(ccc4c3NCC43CCN(Cc4ccccc4)CC3)C2=O)C(=O)N1
> 1000 nM
Cn1ncc2cccc(CN3CCC4(COc5c4ccc4c5CN([C@H]5CCC(=O)NC5=O)C4=O)C(F)(F)C3)c21 (stereo partly shown)
10 to 100 nM
O=C1CC[C@H](N2Cc3c(ccc4c3OCC43CCN(Cc4cccc5[nH]ncc45)CC3(F)F)C2=O)C(=O)N1 (stereo partly shown)
10 to 100 nM
O=C1CC[C@H](N2Cc3c(ccc4c3OCC43CCN(Cc4cnn(CC5CCOCC5)c4)CC3(F)F)C2=O)C(=O)N1 (stereo partly shown)
> 1000 nM
O=C1CC[C@H](N2Cc3c(ccc4c3OCC43CCN(Cc4cn(-c5ccc(Cl)cc5)nc4Cl)CC3)C2=O)C(=O)N1
> 1000 nM
O=C1CC[C@H](N2Cc3c(ccc4c3OCC43CCN(Cc4cn(-c5ccc(Cl)cc5)nc4C(F)(F)F)CC3)C2=O)C(=O)N1
> 1000 nM

I'd like to know its DC50. The molecule in question is Cn1cc2cc(CN3CCC4(COc5c4ccc4c5CN([C@H]5CCC(=O)NC5=O)C4=O)C(F)(F)C3)ccc2n1 (stereo partly shown) > 1000 nM

====

# Study target: IKZF2 (Homo sapiens (Human), UniProt Q96SW2+Q9UKS7)
# Assay overview: IKZF2 HiBiT Assay (Jurkat-IKZF2-HiBiT cell line)
# Format: cell-based
# Condition: Jurkat-IKZF2-HiBiT cells, 24 hours; read-out: HiBit assay degradation analysis DC50
# DC50 annotations

COc1ccc(C(=O)Nc2cccc(CN3CCC4(CC3)COc3c4ccc4c3CN(C3CCC(=O)NC3=O)C4=O)c2)cc1 (stereo not shown) [Compound A177]
< 50 nM
O=C1CCC(N2Cc3c(ccc4c3OCC43CCN(CC4C5CC6CC(C5)CC4C6)CC3)C2=O)C(=O)N1 (stereo not shown) [Compound A23]
> 500 nM

Attention now shifts to the item below.
I'd like to know its DC50. The compound in question is N#Cc1ccc(CN2CCC3(CC2)COc2c3ccc3c2CN(C2CCC(=O)NC2=O)C3=O)cc1Cl (stereo not shown) [Compound A33] > 500 nM

====

# Study target: IKZF2 (Homo sapiens (Human), UniProt Q96SW2+Q9UKS7)
# Assay overview: IKZF2 HiBiT Assay (Jurkat-IKZF2-HiBiT cell line)
# Type: cell-based
# Condition: Jurkat-IKZF2-HiBiT cells, 24 hours; read-out: HiBit assay degradation analysis DC50
# DC50 annotations

These solved cases illustrate the format of a correct answer.
CC(=O)Nc1cccc(CN2CCC3(CC2)COc2c3ccc3c2CN(C2CCC(=O)NC2=O)C3=O)c1 (stereo not shown)
> 500 nM
O=C1CCC(N2Cc3c(ccc4c3OCCC43CCN(Cc4ccc(C(F)F)cc4)CC3)C2=O)C(=O)N1 (stereo not shown)
> 500 nM
CC(C)(O)c1ccc(CN2CCC3(CC2)COc2c3ccc3c2CN(C2CCC(=O)NC2=O)C3=O)cc1 (stereo not shown)
> 500 nM

Attention now shifts to the item below.
Hello, I am looking for reported DC50 with IKZF2 (Homo sapiens (Human), UniProt Q96SW2+Q9UKS7) for Cc1cc2c(CN3CCC4(CC3)COc3c4ccc4c3CN(C3CCC(=O)NC3=O)C4=O)cccc2[nH]1 (stereo not shown) . Could you help? < 50 nM

====

# Dmax annotations
# Study target: IKZF2 (Homo sapiens (Human), UniProt Q96SW2+Q9UKS7)
# Assay overview: IKZF2 HiBiT Assay (Jurkat-IKZF2-HiBiT cell line)
# Assay type: cell-based
# Condition: Jurkat-IKZF2-HiBiT cells, 24 hours; read-out: HiBit assay degradation analysis Dmax

These solved cases illustrate the format of a correct answer.
CC1(C)Cc2c(CN3CCC4(CC3)COc3c4ccc4c3CN(C3CCC(=O)NC3=O)C4=O)cccc2O1 (stereo not shown)
40 to 60%
O=C1CCC(N2Cc3c(ccc4c3OCC43CCN(Cc4ccc5ccncc5c4)CC3)C2=O)C(=O)N1 (stereo not shown)
40 to 60%
O=C1CCC(N2Cc3c(ccc4c3OCC43CCN(Cc4ccc(F)c5ccoc45)CC3)C2=O)C(=O)N1 (stereo not shown)
40 to 60%

Attention now shifts to the item below.
Hello, I am looking for reported Dmax with IKZF2 (Homo sapiens (Human), UniProt Q96SW2+Q9UKS7) for CC(C)Oc1cc(F)ccc1CN1CCC2(CC1)COc1c2ccc2c1CN([C@H]1CCC(=O)NC1=O)C2=O . Could you help? 40 to 60%

====

# Study target: IKZF2 (Homo sapiens (Human), UniProt Q96SW2+Q9UKS7)
# Assay overview: IKZF2 HiBiT Assay (Jurkat-IKZF2-HiBiT cell line)
# Type: cell-based
# Condition: Jurkat-IKZF2-HiBiT cells, 24 hours; read-out: HiBit assay degradation analysis DC50
# DC50 annotations

These solved cases illustrate the format of a correct answer.
O=C1CCC(N2Cc3c(ccc4c3OCC43CCN(Cc4cnc(-c5ccccc5)s4)CC3)C2=O)C(=O)N1 (stereo not shown)
> 500 nM
O=C1CC[C@H](N2Cc3c(ccc4c3OCC43CCN(Cc4cccc(-c5cnn(C(F)(F)F)c5)c4)CC3)C2=O)C(=O)N1
< 50 nM
O=C1CCC(N2Cc3c(ccc4c3OCC43CCN(Cc4cccc5c4OCC5)CC3)C2=O)C(=O)N1 (stereo not shown)
200 to 500 nM
O=C1CCC(N2Cc3c(ccc4c3OCC43CCN(Cc4cccc(C(F)F)c4)CC3)C2=O)C(=O)N1 (stereo not shown)
200 to 500 nM
O=C1CCC(N2Cc3c(ccc4c3OCC43CCN(Cc4cnn(Cc5cccc(F)c5)c4)CC3)C2=O)C(=O)N1 (stereo not shown)
< 50 nM
Cn1ncc2cc(CN3CCC4(CC3)COc3c4ccc4c3CN(C3CCC(=O)NC3=O)C4=O)ccc21 (stereo not shown)
> 500 nM

I'd like to know its DC50. The compound in question is [2H]C([2H])([2H])n1cc(-c2cccc(CN3CCC4(CC3)COc3c4ccc4c3CN([C@H]3CCC(=O)NC3=O)C4=O)c2)cn1 < 50 nM
